- protocol_notes: in vitro
- condition_notes: hamster, hepatocytes, CLint (hamster hepatocytes + ritonavir 4:1)
Here the recorded hepatocyte CLint at 2 h, 4 µM is given for each entry.
recorded_metric: hepatocyte CLint at 2 h, 4 µM

{"columns": ["compound", "experimental_value"],
 "data": [
  ["CC(C)(C)[C@H](NC(=O)C(F)(F)F)C(=O)N1C[C@H]2[C@@H]([C@H]1C(=O)N[C@@H](C[C@@H]1CCNC1=O)C(=O)COc1c(F)c(F)c(CO)c(F)c1F)C2(C)C", "41.9 µL/min/1e6 cells"],
  ["COc1cccc2[nH]c(C(=O)N[C@@H](Cc3cccc(F)c3)C(=O)N[C@@H](C[C@@H]3CCNC3=O)C(=O)COc3c(F)c(F)c(CO)c(F)c3F)cc12", "77.1 µL/min/1e6 cells"],
  ["COc1cccc2[nH]c(C(=O)N[C@@H](Cc3cccc(F)c3)C(=O)N[C@@H](C[C@@H]3CCNC3=O)C(=O)COc3c(F)c(F)c(C(C)O)c(F)c3F)cc12 (some centres unmarked)", "29.7 µL/min/1e6 cells"],
  ["CC(C)(O)c1c(F)c(F)c(OCC(=O)[C@H](C[C@@H]2CCNC2=O)NC(=O)[C@@H]2[C@@H]3[C@H](CN2C(=O)[C@@H](NC(=O)C(F)(F)F)C(C)(C)C)C3(C)C)c(F)c1F", "44.7 µL/min/1e6 cells"],
  ["COc1cccc2[nH]c(C(=O)N[C@@H](Cc3cccc(F)c3)C(=O)N[C@@H](C[C@@H]3CCNC3=O)C(=O)COc3c(F)c(F)c(C(C)(C)O)c(F)c3F)cc12", "19.4 µL/min/1e6 cells"]
]}
